Tested on: 786-0
Assay name: NCI tumour cell line growth inhibition, 48 h
Calls of active or inactive are those of the source. Rule as the data show it: active = GI50 up to about 1.1 µM and inactive = higher.
# valid calls are 1 (active), 0 (inactive); nothing else

Here's what some known entries look like.
Molecule	Target desc	Category
O=C(O)c1nc2ccc(C(F)(F)F)cc2nc1NCc1ccc(F)cc1	786-0	0
CC1=CP(=O)(OC(C)C)C=C(C)C1=C(Cl)Cl (stereo unspecified)	786-0	0
CCOc1cc2c(OCc3ccccc3)cc3c4cc(OC)c(OC)cc4c[n+](C)c3c2cc1OC	786-0	0
CCOC(=O)O/N=C1/C(=C2/C(=O)Nc3ccccc32)Nc2ccccc21	786-0	0
COc1cc(CCNC2=CC(=O)c3cccnc3C2=O)ccc1O	786-0	0
Fc1ccc(C2(CCCN3CCc4[nH]c5cc(F)ccc5c4C3)OCCO2)cc1	786-0	0

### Prompt // param item: Cc1cc(-c2ccc(C(=O)C(c3ccccc3)(c3ccccc3)c3ccccc3)[nH]2)on1 ; yields the recorded call
### Response 0

### Prompt Name the outcome recorded for COc1ccc(CNc2nc3cc(C(F)(F)F)ccc3nc2C)cc1OC in the assay.
### Response 0

### Prompt Write down the call the test reported for this molecule. Item: Cc1ccc(N)c(S)c1
### Response 0

### Prompt Kindly provide the recorded test outcome for the following molecule: CC1=NC(=Cc2ccc([N+](=O)[O-])cc2)C(=O)N1n1c(-c2ccccc2)nc2ccccc2c1=O
### Response 0

### Prompt Could you kindly confirm the outcome this assay logged for O=C(O)c1ccc([Se][Se]c2ccc(C(=O)O)cc2)cc1 ?
### Response 0

### Prompt Recorded test call requested for COc1ccc(/C(=N\NC(=O)C(N)=O)C(c2ccc(OC)cc2)C2(O)C(=O)Nc3c(Cl)cccc32)cc1 (stereo unspecified)
### Response 0

====

System: MOLT-4
Assay name: NCI tumour cell line growth inhibition, 48 h
Activity calls are given as the source filed them. Rule as the data show it: active = GI50 up to about 1.1 µM and inactive = higher.
Choose the fitting class; nothing outside y (active), n (inactive) is accepted.

Molecule	Category
CC1(C)OC(=S)N(c2ccccc2)C12C=Cc1ccccc1O2 (stereo unspecified)	n
Cc1cc(Cl)ccc1NC1=NC(=O)C(CC(=O)Nc2ccc(Cl)cc2Cl)S1 (stereo unspecified)	n
NC(=O)CCC(NC(=O)C(F)(F)F)C(=O)O (stereo unspecified)	n
CC1=CC(=O)/C(=C/NC(=S)Nc2ccccc2)C(=O)O1	n
COc1cc2oc(=O)cc(C)c2cc1O	n
CN(C)CCCCN1c2ccccc2Sc2cc(N=[N+]=[N-])ccc21	n
COC(=O)c1cn(CCCCO)nn1	n
C/C(=N\NC(=S)N1CC2CCC(CC2)C1)c1nccs1	y

### Prompt Please let me know the test result on file for Cc1cc(C(F)(F)F)cc(-n2nc(NS(=O)(=O)c3cc(C)c(Cl)cc3S)nc2N)n1 .
### Response n

### Prompt What did the test return for CC(C)N(C(=O)C12CC3CC(CC(C3)C1)C2)C(C)C ?
### Response n

### Prompt Name the outcome recorded for Oc1nc2cc3nc(O)c(O)nc3cc2nc1O in the assay.
### Response n

====

Tested on: ACHN
Assay name: NCI tumour cell line growth inhibition, 48 h
Calls of active or inactive are those of the source. No stated cut-off is given here; in the data, active = GI50 up to about 1.1 µM and inactive = higher.
Answer with one of the outcomes true (1) for active, false (0) for inactive

Compound	Category
CC(C)(C)c1cc(C(=O)/C=C/c2ccc(O)c(O)c2O)cc(C(C)(C)C)c1O	false (0)

### Prompt Query: recorded result category for O=C(CC(=O)N1N=C(N2CCCCC2)CC1c1ccccc1)Nc1ccccc1 (centres undefined) in this test
### Response false (0)

All values here come from ChEMBL document CHEMBL1201862.
